# target.system: CFTR (Homo sapiens, UniProt P13569)
# Construct: endogenous in cells; host or cells: T84 human colonic cells (ECACC)
# Sequence (P13569 whole entry): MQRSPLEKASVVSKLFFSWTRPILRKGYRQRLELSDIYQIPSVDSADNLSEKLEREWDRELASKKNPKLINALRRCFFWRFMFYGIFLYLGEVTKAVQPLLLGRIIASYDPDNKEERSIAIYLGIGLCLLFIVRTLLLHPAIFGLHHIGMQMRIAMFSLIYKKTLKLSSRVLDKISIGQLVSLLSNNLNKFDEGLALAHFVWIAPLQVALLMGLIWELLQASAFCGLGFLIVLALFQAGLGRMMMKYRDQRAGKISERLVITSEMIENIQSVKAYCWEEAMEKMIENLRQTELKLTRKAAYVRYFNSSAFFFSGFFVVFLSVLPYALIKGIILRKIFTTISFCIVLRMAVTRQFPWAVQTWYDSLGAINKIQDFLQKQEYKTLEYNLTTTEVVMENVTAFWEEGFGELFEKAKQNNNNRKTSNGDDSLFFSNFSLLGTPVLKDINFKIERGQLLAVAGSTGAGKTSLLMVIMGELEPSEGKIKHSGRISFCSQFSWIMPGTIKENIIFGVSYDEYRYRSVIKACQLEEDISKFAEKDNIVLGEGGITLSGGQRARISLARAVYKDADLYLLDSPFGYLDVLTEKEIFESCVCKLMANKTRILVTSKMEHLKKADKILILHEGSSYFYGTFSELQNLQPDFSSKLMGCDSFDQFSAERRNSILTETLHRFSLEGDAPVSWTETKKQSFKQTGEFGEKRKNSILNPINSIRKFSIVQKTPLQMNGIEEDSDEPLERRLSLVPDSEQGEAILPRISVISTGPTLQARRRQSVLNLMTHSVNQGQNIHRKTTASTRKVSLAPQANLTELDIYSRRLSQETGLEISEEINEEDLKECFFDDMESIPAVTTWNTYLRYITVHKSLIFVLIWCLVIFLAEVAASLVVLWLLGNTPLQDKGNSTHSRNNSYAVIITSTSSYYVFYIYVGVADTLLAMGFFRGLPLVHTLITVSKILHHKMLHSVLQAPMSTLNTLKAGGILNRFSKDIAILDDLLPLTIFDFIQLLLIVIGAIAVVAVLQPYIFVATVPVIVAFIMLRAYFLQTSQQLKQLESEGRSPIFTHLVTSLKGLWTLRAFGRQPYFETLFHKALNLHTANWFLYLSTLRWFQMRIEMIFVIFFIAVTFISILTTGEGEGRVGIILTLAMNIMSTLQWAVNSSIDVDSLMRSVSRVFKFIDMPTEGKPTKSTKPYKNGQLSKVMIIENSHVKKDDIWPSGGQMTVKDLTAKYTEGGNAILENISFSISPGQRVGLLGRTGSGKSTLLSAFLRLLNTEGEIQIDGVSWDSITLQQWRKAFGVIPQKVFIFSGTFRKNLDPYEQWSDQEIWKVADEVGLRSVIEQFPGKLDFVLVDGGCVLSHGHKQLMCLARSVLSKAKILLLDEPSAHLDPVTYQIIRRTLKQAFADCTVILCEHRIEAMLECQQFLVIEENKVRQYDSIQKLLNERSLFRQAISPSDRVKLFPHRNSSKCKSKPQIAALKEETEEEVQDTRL
# procedure.summary: T84 assay (FLIPR membrane potential dye, forskolin/IBMX-stimulated CFTR channel activity)
# Format: cell-based
# test.parameters: imidazole and triazole-containing compounds (Tables 13, 14, 14′), read-out: IC50 (μM) (T84 assay)

{"compound": "COCCOCCOCCOCCON(Cc1ccc(Oc2ccccc2)cc1)C(=O)c1ncn(-c2cc(Cl)c(O)c(Cl)c2)n1 [122i]", "IC50": "5.11 µM"}
{"compound": "O=C(NCc1ccc(Oc2ccc(CO)cc2)cc1)c1ncn(-c2cc(Cl)c(O)c(Cl)c2)n1 [76i]", "IC50": "11.3 µM"}
{"compound": "COCCOCCOCCOCCOCCOCCOCCOCCON(Cc1ccc(Oc2ccccc2)cc1)C(=O)c1ncn(-c2cc(Cl)c(O)c(Cl)c2)n1 [121i]", "IC50": "12.5 µM"}
{"compound": "CC(C)c1ccc(CC(NC(=O)c2ncn(-c3cc(Cl)c(O)c(Cl)c3)n2)C(=O)C(C)(C)C)cc1 (stereo not drawn) [134i]", "IC50": "3.09 µM"}
{"compound": "COCCOCCOCCOCCN(Cc1ccc(Oc2ccccc2)cc1)C(=O)c1ncn(-c2cc(Cl)c(O)c(Cl)c2)n1 [112i]", "IC50": "12.5 µM"}
{"compound": "O=C(NCC(c1ccccc1)c1ccccc1)c1ncn(-c2cc(Cl)c(O)c(Cl)c2)n1 [44i]", "IC50": "2.8 µM"}
{"compound": "O=C(NCc1cc(F)cc(C(F)(F)F)c1)c1ncn(-c2cc(Cl)c(O)c(Cl)c2)n1 [24i]", "IC50": "4.93 µM"}
{"compound": "O=C(c1ncn(-c2cc(Cl)c(O)c(Cl)c2)n1)N(Cc1cccnc1)Cc1cccc(C(F)(F)F)c1 [94i]", "IC50": "6.95 µM"}
{"compound": "O=C(NCc1ccc(Cl)cc1)c1ncn(-c2cc(Cl)c(O)c(Cl)c2)n1 [48i]", "IC50": "8.67 µM"}
{"compound": "O=C(NCc1cccc(Cl)c1)c1ncn(-c2cc(Cl)c(O)c(Cl)c2)n1 [47i]", "IC50": "12.6 µM"}
{"compound": "CCN(Cc1ccc(Cl)c(Cl)c1)C(=O)c1ncn(-c2cc(Cl)c(O)c(Cl)c2)n1 [108i]", "IC50": "2.99 µM"}
{"compound": "C=CCN(Cc1cccc(OC(F)(F)F)c1)C(=O)c1ncn(-c2cc(Cl)c(O)c(Cl)c2)n1 [103i]", "IC50": "2.53 µM"}
{"compound": "O=C(NCc1ccc(Oc2ccc(Cl)c(C(F)(F)F)c2)cc1)c1ncn(-c2cc(Cl)c(O)c(Cl)c2)n1 [70i]", "IC50": "4.72 µM"}
{"compound": "O=C(c1ncn(-c2cc(Cl)c(O)c(Cl)c2)n1)N(Cc1cccnc1)Cc1cccc(OC(F)(F)F)c1 [110i]", "IC50": "4.48 µM"}
{"compound": "CC(C)Oc1ccc(CNC(=O)c2ncn(-c3cc(Cl)c(O)c(Cl)c3)n2)cc1 [28i]", "IC50": "16.8 µM"}
{"compound": "O=C(NCc1ccccc1Cl)c1ncn(-c2cc(Cl)c(O)c(Cl)c2)n1 [30i]", "IC50": "27.8 µM"}
{"compound": "CC(C)(C)C(=O)CN(Cc1ccc(C(C)(C)C)cc1)C(=O)c1ncn(-c2cc(Cl)c(O)c(Cl)c2)n1 [50i]", "IC50": "1.16 µM"}
{"compound": "O=C(NCc1cccc(OC(F)(F)F)c1)c1ncn(-c2cc(Cl)c(O)c(Cl)c2)n1", "IC50": "7.14 µM"}
{"compound": "COCCOCCOCCN(Cc1ccc(Oc2ccccc2)cc1)C(=O)c1ncn(-c2cc(Cl)c(O)c(Cl)c2)n1 [119i]", "IC50": "5.11 µM"}
{"compound": "CC(C)(C)C(=O)C(Cc1cccc(C(F)(F)F)c1)NC(=O)c1ncn(-c2cc(Cl)c(O)c(Cl)c2)n1 (stereo not drawn) [132i]", "IC50": "3.87 µM"}
{"compound": "Oc1c(Cl)cc(-n2cnc(C(O)(c3cc(F)cc(Cl)c3)c3cc(F)cc(Cl)c3)n2)cc1Cl [57i]", "IC50": "14.7 µM"}
{"compound": "CN(C(=O)c1ncn(-c2cc(Cl)c(O)c(Cl)c2)n1)c1ccc(OC(F)(F)F)cc1 [21i]", "IC50": "15.7 µM"}
{"compound": "CC(C)(C)C(=O)C(Cc1cccc(OC(F)(F)F)c1)NC(=O)c1ncn(-c2cc(Cl)c(O)c(Cl)c2)n1 (stereo not drawn) [133i]", "IC50": "1.23 µM"}
{"compound": "COCCOCCOCCON(Cc1ccc(Oc2ccccc2)cc1)C(=O)c1ncn(-c2cc(Cl)c(O)c(Cl)c2)n1 [123i]", "IC50": "8.44 µM"}
{"compound": "C=CCN(Cc1ccc(Oc2ccccc2)cc1)C(=O)c1ncn(-c2cc(Cl)c(O)c(Cl)c2)n1 [100i]", "IC50": "1.85 µM"}
{"compound": "CC(NC(=O)c1ncn(-c2cc(Cl)c(O)c(Cl)c2)n1)c1ccc(F)cc1 (stereo not drawn)", "IC50": "17.6 µM"}
{"compound": "CC(C)c1ccc(CN(C(=O)c2ncn(-c3cc(Cl)c(O)c(Cl)c3)n2)C(C)C)cc1 [96i]", "IC50": "2.53 µM"}
{"compound": "COCCOCCOCCOCCN(Cc1cccc(OC(F)(F)F)c1)C(=O)c1ncn(-c2cc(Cl)c(O)c(Cl)c2)n1 [115i]", "IC50": "2.8 µM"}
{"compound": "CC(C)c1ccc(CN(Cc2cccnc2)C(=O)c2ncn(-c3cc(Cl)c(O)c(Cl)c3)n2)cc1 [92i]", "IC50": "1.47 µM"}
{"compound": "CN(Cc1cccc(C(F)(F)F)c1)C(=O)c1ncn(-c2cc(Cl)c(O)c(Cl)c2)n1", "IC50": "16.2 µM"}
{"compound": "O=C(c1ncn(-c2cc(Cl)c(O)c(Cl)c2)n1)N1CCC(Cc2ccccc2)CC1", "IC50": "15.9 µM"}
{"compound": "CC(C)(C)c1ccc(CNC(=O)c2ncn(-c3cc(Cl)c(O)c(Cl)c3)n2)cc1 [34i]", "IC50": "1.18 µM"}
{"compound": "CC(C)(C)CCN(Cc1cccc(C(F)(F)F)c1)C(=O)c1ncn(-c2cc(Cl)c(O)c(Cl)c2)n1 [79i]", "IC50": "2.23 µM"}

---

# Tested on: cholera toxin (CTX) induced net fluid secretion in intestinal loops
# procedure.summary: animal or person
# Type: in vivo, mice (CD1 strain)
# test.parameters: 4 hours
Classification field: enter t for closed loop % inhibition @ 100 μg values not below 70%, f for values below it.

{"compound": "Oc1c(Br)cc(-c2cnc(COc3cccc(Cl)c3Cl)nn2)cc1Br [30e]", "class.label": "t"}
{"compound": "Oc1c(Br)cc(-c2cnc(OCCc3ccccc3)nn2)cc1Br [96e]", "class.label": "t"}
{"compound": "OCCN(Cc1ccccc1)c1ccc(-c2cc(Cl)c(O)c(Cl)c2)nn1 [98f]", "class.label": "f"}
{"compound": "Oc1c(Cl)cc(-c2cnc(C(O)(c3ccccc3)c3ccccc3)nn2)cc1Cl [36e]", "class.label": "t"}
{"compound": "Oc1c(Br)cc(-c2cnc(OCc3ccc(Cl)cc3)nn2)cc1Br [20e]", "class.label": "t"}
{"compound": "CCN(Cc1ccccc1)c1ccc(-c2cc(Cl)c(O)c(Cl)c2)nn1 [115f]", "class.label": "t"}

---

Each entry below carries its recorded IC50.
# target.system: CFTR (Homo sapiens, UniProt P13569)
# Construct: endogenous in cells; host or cells: T84 human colonic cells (ECACC)
# procedure.summary: T84 assay (FLIPR membrane potential dye, forskolin/IBMX-stimulated CFTR channel activity)
# Format: cell-based
# test.parameters: imidazole and triazole-containing compounds (Tables 13, 14, 14′), read-out: IC50 (μM) (T84 assay)
assay.readout: IC50 (µM)

{"compound": "O=C(c1ncn(-c2cc(Cl)c(O)c(Cl)c2)n1)N(Cc1ccc(Oc2ccccc2)cc1)Cc1cccnc1 [91i]", "result.units": "µM", "reported.measurement": 2.89}
{"compound": "C=CCN(Cc1cccc(C(F)(F)F)c1)C(=O)c1ncn(-c2cc(Cl)c(O)c(Cl)c2)n1 [104i]", "result.units": "µM", "reported.measurement": 5.83}
{"compound": "CC(C)c1ccc(CN(Cc2ccccc2)C(=O)c2ncn(-c3cc(Cl)c(O)c(Cl)c3)n2)cc1 [81i]", "result.units": "µM", "reported.measurement": 1.26}
{"compound": "CON(Cc1ccc(C(C)C)cc1)C(=O)c1ncn(-c2cc(Cl)c(O)c(Cl)c2)n1 [128i]", "result.units": "µM", "reported.measurement": 2.19}
{"compound": "COCCOCCOCCOCCOCCN(Cc1ccc(C(C)(C)C)cc1)C(=O)c1ncn(-c2cc(Cl)c(O)c(Cl)c2)n1 [118i]", "result.units": "µM", "reported.measurement": 17.3}
{"compound": "CC(C)(C)CCN(Cc1ccc(Cl)c(Cl)c1)C(=O)c1ncn(-c2cc(Cl)c(O)c(Cl)c2)n1 [107i]", "result.units": "µM", "reported.measurement": 1.73}
{"compound": "CN(C)c1cccc(CNC(=O)c2ncn(-c3cc(Cl)c(O)c(Cl)c3)n2)c1 [26i]", "result.units": "µM", "reported.measurement": 3.92}
{"compound": "CC(C)(C)CCN(Cc1cccc(OC(F)(F)F)c1)C(=O)c1ncn(-c2cc(Cl)c(O)c(Cl)c2)n1 [77i]", "result.units": "µM", "reported.measurement": 3.01}
{"compound": "CC(C)N(Cc1ccc(C(C)(C)C)cc1)C(=O)c1ncn(-c2cc(Cl)c(O)c(Cl)c2)n1 [97i]", "result.units": "µM", "reported.measurement": 1.23}
{"compound": "O=C(NCc1ccc(Cl)c(Cl)c1)c1ncn(-c2cc(Cl)c(O)c(Cl)c2)n1 [37i]", "result.units": "µM", "reported.measurement": 2.67}
{"compound": "C=CCN(Cc1ccc(C(C)C)cc1)C(=O)c1ncn(-c2cc(Cl)c(O)c(Cl)c2)n1 [101i]", "result.units": "µM", "reported.measurement": 0.76}
{"compound": "CON(Cc1ccc(Cl)c(Cl)c1)C(=O)c1ncn(-c2cc(Cl)c(O)c(Cl)c2)n1 [126i]", "result.units": "µM", "reported.measurement": 2.43}
{"compound": "COCCOCCOCCN(Cc1ccc(Cl)c(Cl)c1)C(=O)c1ncn(-c2cc(Cl)c(O)c(Cl)c2)n1 [114i]", "result.units": "µM", "reported.measurement": 6.63}
{"compound": "CC(C)N(Cc1cccc(OC(F)(F)F)c1)C(=O)c1ncn(-c2cc(Cl)c(O)c(Cl)c2)n1 [99i]", "result.units": "µM", "reported.measurement": 7.93}
{"compound": "O=C(NCc1ccccc1C(F)(F)F)c1ncn(-c2cc(Cl)c(O)c(Cl)c2)n1 [35i]", "result.units": "µM", "reported.measurement": 23.8}
{"compound": "O=C(c1ncn(-c2cc(Cl)c(O)c(Cl)c2)n1)N(Cc1cccnc1)Cc1ccc(Cl)c(Cl)c1 [109i]", "result.units": "µM", "reported.measurement": 3.06}
{"compound": "Oc1c(Cl)cc(-n2cnc(C(O)(Cc3ccc(F)cc3)Cc3ccc(F)cc3)n2)cc1Cl [56i]", "result.units": "µM", "reported.measurement": 20.4}
{"compound": "CC(NC(=O)c1ncn(-c2cc(Cl)c(O)c(Cl)c2)n1)c1ccc(Br)cc1 (stereo not shown) [32i]", "result.units": "µM", "reported.measurement": 10.3}
{"compound": "O=C(c1ncn(-c2cc(Cl)c(O)c(Cl)c2)n1)N(Cc1ccccc1)Cc1cccnc1 [75i]", "result.units": "µM", "reported.measurement": 15.6}
{"compound": "O=C(c1cn(-c2cc(Br)c(O)c(Br)c2)cn1)N1CCC(Cc2ccccc2)CC1 [19i]", "result.units": "µM", "reported.measurement": 17.4}
{"compound": "CC(C)N(Cc1ccc(Cl)c(Cl)c1)C(=O)c1ncn(-c2cc(Cl)c(O)c(Cl)c2)n1 [98i]", "result.units": "µM", "reported.measurement": 8.13}
{"compound": "O=C(NCc1ccc(Oc2ccc(OC(F)(F)F)cc2)cc1)c1ncn(-c2cc(Cl)c(O)c(Cl)c2)n1 [66i]", "result.units": "µM", "reported.measurement": 3.2}
{"compound": "Cc1noc(C)c1CCNC(=O)c1ncn(-c2cc(Cl)c(O)c(Cl)c2)n1 [74i]", "result.units": "µM", "reported.measurement": 1.28}
{"compound": "Oc1c(Cl)cc(-n2cnc(C(O)(Cc3ccccc3F)Cc3ccccc3F)n2)cc1Cl [59i]", "result.units": "µM", "reported.measurement": 21.1}
{"compound": "O=C(NCc1cccc(C(F)(F)F)c1)c1ncn(-c2cc(Cl)c(O)c(Cl)c2)n1", "result.units": "µM", "reported.measurement": 22.4}
{"compound": "O=C(NCc1ccc(Oc2cccc(N3CCCC3)c2)cc1)c1ncn(-c2cc(Cl)c(O)c(Cl)c2)n1 [69i]", "result.units": "µM", "reported.measurement": 4.3}
{"compound": "O=C(NCc1cccc(-n2cccn2)c1)c1ncn(-c2cc(Cl)c(O)c(Cl)c2)n1 [46i]", "result.units": "µM", "reported.measurement": 28.6}
{"compound": "CC(C)(C)CCN(Cc1ccccc1)C(=O)c1ncn(-c2cc(Cl)c(O)c(Cl)c2)n1 [60i]", "result.units": "µM", "reported.measurement": 16.2}
{"compound": "CCN(Cc1cccc(OC(F)(F)F)c1)C(=O)c1ncn(-c2cc(Cl)c(O)c(Cl)c2)n1 [89i]", "result.units": "µM", "reported.measurement": 3.34}
{"compound": "O=C(c1ncn(-c2cc(Cl)c(O)c(Cl)c2)n1)N(Cc1ccccc1)Cc1cccc(C(F)(F)F)c1 [85i]", "result.units": "µM", "reported.measurement": 3.16}
{"compound": "O=C(c1ncn(-c2cc(Cl)c(O)c(Cl)c2)n1)N(Cc1ccccc1)Cc1ccc(Cl)c(Cl)c1 [83i]", "result.units": "µM", "reported.measurement": 3.22}
{"compound": "O=C(NC(c1ccccc1)c1ccc(Cl)cc1)c1ncn(-c2cc(Cl)c(O)c(Cl)c2)n1 (stereo not shown) [33i]", "result.units": "µM", "reported.measurement": 3.66}
{"compound": "CCN(Cc1cccc(C(F)(F)F)c1)C(=O)c1ncn(-c2cc(Cl)c(O)c(Cl)c2)n1 [90i]", "result.units": "µM", "reported.measurement": 5.98}
{"compound": "CON(Cc1ccc(Oc2ccccc2)cc1)C(=O)c1ncn(-c2cc(Cl)c(O)c(Cl)c2)n1 [129i]", "result.units": "µM", "reported.measurement": 2.61}
